- Tested on: Vibrio harveyi JMH597 AI-2 quorum sensing luminescence, 9 h
- method: inhibitors of AI-2 quorum sensing in V. harveyi, dose response, LuxS, LuxPQ, dry powder, set 3 (AID 493075)
measuredQuantity: AC50

C=Cn1c(C(=O)O)ccc1-c1ccc(Cl)cc1 | 4.97 µM
CCc1ccc(S(=O)(=O)Nc2ccc(Br)cn2)cc1 | 3.67 µM

Give AC50 for all compounds that follow.
1. C[C@@H]1CN([C@H](C)CO)C(=O)c2ccccc2-c2ccccc2CO[C@@H]1CN(C)Cc1ccc(Oc2ccccc2)cc1
2. C[C@H](CO)N1C[C@H](C)[C@@H](CN(C)Cc2ccc3c(c2)OCO3)Oc2c(NC(=O)NC3CCCCC3)cccc2C1=O
3. C=Cn1c(C(=O)O)ccc1-c1ccc(OC)cc1
4. O=S(=O)(Nc1cccnc1)c1ccc(Oc2ccccc2)cc1

Ans:
12.7 µM
7.05 µM
8.59 µM
0.627 µM

Give AC50 for all compounds that follow.
1. O=C1C=C/C(=C/Br)O1
2. CCc1ccc(-c2ccc(C(=O)O)n2C)cc1

Ans:
1. 3.78 µM
2. 4.46 µM

Data provenance: PubChem BioAssay AID493075
